system.tested: Botulinum neurotoxin type A (Clostridium botulinum, UniProt P0DPI0)
Sequence (P0DPI0 2-448 limits assumed): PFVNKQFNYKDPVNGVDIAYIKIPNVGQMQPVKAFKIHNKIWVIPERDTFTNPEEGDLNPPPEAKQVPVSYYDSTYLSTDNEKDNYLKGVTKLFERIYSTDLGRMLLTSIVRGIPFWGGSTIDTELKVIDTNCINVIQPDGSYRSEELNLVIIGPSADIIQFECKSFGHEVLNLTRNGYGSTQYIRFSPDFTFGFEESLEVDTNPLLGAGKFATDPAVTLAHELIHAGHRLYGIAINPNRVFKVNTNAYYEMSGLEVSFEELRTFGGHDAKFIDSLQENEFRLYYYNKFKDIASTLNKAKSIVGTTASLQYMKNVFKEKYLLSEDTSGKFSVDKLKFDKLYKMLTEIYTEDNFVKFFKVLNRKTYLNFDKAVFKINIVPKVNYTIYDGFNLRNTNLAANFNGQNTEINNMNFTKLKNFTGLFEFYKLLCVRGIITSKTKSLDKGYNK
property: Ki (nM)
Response body: numeric value in nM, unit text excluded.

Param item: NCCCCCCCNCCCCCCCNC(=O)c1cc(CCC(=O)NO)c(CCC(O)(c2ccccc2)c2ccccc2)[nH]1 ; param system: Botulinum neurotoxin type A (Clostridium botulinum, UniProt P0DPI0); output Ki: 760

---

system.tested: Botulinum neurotoxin type A (Clostridium botulinum, UniProt P0DPI0)
protocol.summary: Inhibition of Clostridium botulinum toxin BoNT/A light chain by FRET assay
property: IC50

Here are 8 compounds together with their reported answers.
1. N#Cc1ccc(Oc2ccc(-c3cc4ccc(C(=N)N)cc4[nH]3)cc2)cc1; > 25 µM
2. c1cc(-c2cc3ccc(C4=NCCCN4)cc3[nH]2)ccc1C1=NCCCN1; > 100 µM
3. N#Cc1ccc(Oc2ccc(-c3cc4ccc(C#N)cc4[nH]3)cc2)cc1; > 100 µM
4. Clc1ccc2cc(-c3ccc(Oc4ccc(C5=NCCN5)cc4)cc3)[nH]c2c1; > 100 µM
5. NC(=O)c1ccc(Oc2ccc(-c3cc4ccc(C(N)=O)cc4[nH]3)cc2)cc1; > 100 µM
6. c1cc(-c2cc3ccc(C4=NCCCN4)cc3s2)ccc1C1=NCCCN1; > 100 µM
7. N#Cc1ccc(Oc2ccc(-c3cc4ccc(C#N)cc4[nH]3)cc2)c(Cl)c1; > 100 µM
8. N#Cc1ccc(Oc2ccc(-c3cc4ccc(C#N)cc4[nH]3)nc2)cc1; > 100 µM

Now for the compound whose IC50 we want.
Noted for Clc1ccc(Oc2ccc(-c3cc4ccc(C5=NCCN5)cc4[nH]3)cc2)c(Cl)c1 : its IC50 reads > 25 µM
